Experiment: yeast display, Sf9 membrane polyspecificity reagent, FACS + sequencing; frameworks hold sequencing errors

{"SEQ STRING": "QVQLVESGGGLVQAGGSLRLSCAASGRTSWVYAMGWYRQAPGTERELVASIRKRTVVYADSVKGRFTISRDNAKNTVYLQMNSLKPEDTAVYYCNADTTFYGYRTYRPENYWGQGTQVTVSS", "polyreactivity (PSR sort gate)": "high polyreactivity"}
{"SEQ STRING": "QVQLVESGGGLLQAGGSLRLSCAASGRTIVQNAMGWYRQAPGKERELVASIRYRDGSTYYADSVKGRFTISRDNAKNTVYLQMNSLKTEDTAVYYCAVRYYRKYYYSPFDYWGQGTQVTVSS", "polyreactivity (PSR sort gate)": "high polyreactivity"}
{"SEQ STRING": "QVQLVESGGGLVQAGGSLRLRCAASGSTFVPYAMGWYRQAPWKERELVAAITWNGGRTYYADSVKGRYTISRDNANNTVYLQMNSLKPEDTAVYFCNGLSYTWACYYWGQGTRVTVSS", "polyreactivity (PSR sort gate)": "high polyreactivity"}
{"SEQ STRING": "QVQLVESGGGLVQAGGSLRLSCAASGSIFFRNAMGWYRQAPGKERELVATIDWSGGYTDYADTVKGRFTISRDNAKNTVYLQMNSLKPEETAVYYCATGRYDRYYNFWYYYWGQGPQVTVSS", "polyreactivity (PSR sort gate)": "high polyreactivity"}
